Items are presented alongside their recorded IC50.
- system-tested: PPARα (Homo sapiens)
- Sequence (Q07869 167-468 limits assumed): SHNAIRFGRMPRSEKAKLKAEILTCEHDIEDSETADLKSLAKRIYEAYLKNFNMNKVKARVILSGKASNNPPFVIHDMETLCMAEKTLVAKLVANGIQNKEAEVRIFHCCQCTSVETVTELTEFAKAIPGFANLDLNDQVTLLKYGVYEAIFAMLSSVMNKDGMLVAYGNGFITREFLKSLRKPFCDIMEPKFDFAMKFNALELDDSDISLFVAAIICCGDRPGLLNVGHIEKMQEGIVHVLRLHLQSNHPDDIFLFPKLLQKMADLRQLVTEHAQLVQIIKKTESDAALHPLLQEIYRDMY
Give just the numeric value; nM need not be written.

>  <molecule>
Cc1cc(OC(C)C(=O)Nc2cccc(-c3ccc(C(F)(F)F)cc3)c2)ccc1OC(C)(C)C(=O)O (racemic) [Example 09]

>  <IC50 (nM)>
420

$$$$

What the record says about CC(C)(Oc1ccc(CCCC(=O)Nc2cnc(-c3ccc(C(F)(F)F)cc3)nc2C2CC2)cc1)C(=O)O [Example 16] : IC50 is 8

----------
- system-tested: PPARδ (Homo sapiens)
- Sequence (Q03181 139-441 limits assumed): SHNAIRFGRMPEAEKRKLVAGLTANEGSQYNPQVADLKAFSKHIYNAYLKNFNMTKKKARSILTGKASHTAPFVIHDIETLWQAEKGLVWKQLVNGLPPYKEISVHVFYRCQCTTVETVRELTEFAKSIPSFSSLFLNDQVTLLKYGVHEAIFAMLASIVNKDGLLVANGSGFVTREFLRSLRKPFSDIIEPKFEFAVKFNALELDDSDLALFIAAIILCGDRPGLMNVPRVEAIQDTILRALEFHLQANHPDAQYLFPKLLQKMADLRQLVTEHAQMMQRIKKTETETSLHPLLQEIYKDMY
measurement-kind: IC50 (nM)
Give just the numeric value; nM need not be written.

The measured IC50 that Cc1cc(OCCNC(=O)c2cnc(-c3ccc(C(F)(F)F)cc3)nc2C2CC2)ccc1OC(C)(C)C(=O)O showed for PPARδ (Homo sapiens) is 940
